# maps each entry to its pKi
Molecular target: Somatostatin receptor type 2 (Homo sapiens, UniProt P30874)
Sequence (P30874 whole entry): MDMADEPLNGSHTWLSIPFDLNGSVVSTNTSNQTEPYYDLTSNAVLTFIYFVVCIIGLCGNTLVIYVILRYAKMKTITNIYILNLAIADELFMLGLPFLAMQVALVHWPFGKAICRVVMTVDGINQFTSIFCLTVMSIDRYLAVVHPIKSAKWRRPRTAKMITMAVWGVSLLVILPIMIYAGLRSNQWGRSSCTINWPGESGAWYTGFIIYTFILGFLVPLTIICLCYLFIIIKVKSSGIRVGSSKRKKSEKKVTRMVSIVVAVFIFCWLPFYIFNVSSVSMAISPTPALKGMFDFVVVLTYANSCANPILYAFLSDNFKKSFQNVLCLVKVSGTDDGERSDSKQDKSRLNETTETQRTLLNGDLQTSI
Positions of bridges follow the written chain, without caps; N, C: chain ends. Non-standard residues stand in square brackets, D forms with d. Residues, ends and D or L forms follow the SMILES beside them. *: point of attachment. Asu = N[C@@H](CCCCCC(=O)O)C(=O)O; Ahp = NCCCCCCC(=O)O; Bn = c1ccc(C*)cc1
Answer as the number alone; pKi is minus log10 of concentration in mol/L.

Below, 2 compounds whose answers are already recorded.
Record request: pKi value, item C[C@@H](OCc1ccccc1)[C@@H]1NC(=O)[C@H](CCCCN)NC(=O)[C@@H](Cc2c[nH]c3ccccc23)NC(=O)[C@H](Cc2ccccc2)NC(=O)CCCCCCNC1=O [c[Aha-Phe-D-Trp-Lys-Thr(Bzl)]] (cyclo([Ahp]F[dW]KT(Bn)))
5.60

Record request: pKi value, item C[C@@H](O)[C@H](NC(=O)[C@H](Cc1ccccc1)NC(=O)[C@@H](NC(=O)[C@H](CCCCN)NC(=O)[C@@H](Cc1c[nH]c2ccccc12)NC(=O)[C@H](Cc1ccccc1)NC(=O)[C@H](Cc1ccccc1)NC(=O)[C@H](N)Cc1ccccc1)[C@@H](C)O)C(N)=O [CAS_133073-82-2] (H-[dF]FF[dW]KTFT-NH2)
8.10

For the next question, use this compound.
Record request: pKi value, item C[C@@H](O)[C@@H]1NC(=O)[C@H](Cc2ccc(O)cc2)NC(=O)[C@H]([C@@H](C)O)NC(=O)[C@H](CCCCN)NC(=O)[C@H](Cc2c[nH]c3ccccc23)NC(=O)[C@H](Cc2ccccc2)NC(=O)[C@H](Cc2ccccc2)NC(=O)[C@H](CC(N)=O)NC(=O)[C@H](CCCCN)NC(=O)CCCCC[C@@H](C(=O)O)NC(=O)[C@H](CO)NC1=O [CGP-23996] (KNFFWKTYTS[Asu]-OH; lactam N-11)
9.10

* * *

pKi: −log10 of the molar value. Positions of bridges follow the written chain, without caps; N, C: chain ends. Non-standard residues stand in square brackets, D forms with d. Residues, ends and D or L forms follow the SMILES beside them. *: point of attachment. Nphe = O=C(O)CNCc1ccccc1; Ahp = NCCCCCCC(=O)O; Bn = c1ccc(C*)cc1
Parameter pKi, tested on UniProt P30872, listed per item.
Sequence (P30872 whole entry): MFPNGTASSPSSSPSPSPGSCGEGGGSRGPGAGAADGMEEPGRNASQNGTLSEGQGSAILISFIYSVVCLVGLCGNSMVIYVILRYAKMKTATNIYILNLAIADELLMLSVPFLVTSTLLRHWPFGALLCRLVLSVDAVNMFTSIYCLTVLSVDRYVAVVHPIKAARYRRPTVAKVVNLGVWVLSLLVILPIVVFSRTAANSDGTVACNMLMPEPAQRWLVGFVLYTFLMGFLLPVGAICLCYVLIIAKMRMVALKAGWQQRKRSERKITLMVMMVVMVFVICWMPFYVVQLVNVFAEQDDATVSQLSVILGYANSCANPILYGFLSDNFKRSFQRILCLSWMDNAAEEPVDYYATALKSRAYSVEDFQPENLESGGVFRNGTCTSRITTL
quantity: pKi

Record request: pKi value, item CC(=O)N(CC(=O)NC1CSSCC(C(=O)NC(Cc2c[nH]c3ccccc23)C(N)=O)NC(=O)C(C(C)C)NC(=O)C(CCCCN)NC(=O)C(Cc2c[nH]c3ccccc23)NC(=O)C(Cc2ccc(O)cc2)NC1=O)Cc1ccccc1 (configuration not stated) [RC 160II] (Ac-[Nphe]CYWKVCW-NH2; disulfide 2-7; configuration not given here)
7.00

[P] C[C@@H](OCc1ccccc1)[C@@H]1NC(=O)[C@H](CCCCN)NC(=O)[C@@H](Cc2c[nH]c3ccccc23)NC(=O)[C@H](Cc2ccccc2)NC(=O)CCCCCCNC1=O [c[Aha-Phe-D-Trp-Lys-Thr(Bzl)]] (cyclo([Ahp]F[dW]KT(Bn)))
[Q] C[C@@H](O)[C@@H]1NC(=O)[C@H](CCCCN)NC(=O)[C@@H](Cc2c[nH]c3ccccc23)NC(=O)[C@H](Cc2c[nH]c3ccccc23)NC(=O)[C@H](Cc2ccccc2)NC(=O)CCCCCCNC(=O)[C@H](Cc2ccccc2)NC1=O [L-362855] (cyclo([Ahp]FW[dW]KTF))
Of P versus Q , which is the one with smaller reported pKi? Mark your answer with the label of the selected entry.
P
(P: 6.40, Q: 7.00)

* * *

Parameter pKi, tested on UniProt P31391, listed per item.
pKi: −log10 of the molar value. Positions of bridges follow the written chain, without caps; N, C: chain ends. Non-standard residues stand in square brackets, D forms with d. Residues, ends and D or L forms follow the SMILES beside them. *: point of attachment. Nphe = O=C(O)CNCc1ccccc1; Ahp = NCCCCCCC(=O)O; Bn = c1ccc(C*)cc1
quantity: pKi

Below, 3 molecules whose answers are already recorded.
// lookup pKi | system=UniProt P31391 | key= C[C@@H](O)[C@H](NC(=O)[C@H](Cc1ccccc1)NC(=O)[C@@H](NC(=O)[C@H](CCCCN)NC(=O)[C@@H](Cc1c[nH]c2ccccc12)NC(=O)[C@H](Cc1ccccc1)NC(=O)[C@H](Cc1ccccc1)NC(=O)[C@H](N)Cc1ccccc1)[C@@H](C)O)C(N)=O [CAS_133073-82-2] (H-[dF]FF[dW]KTFT-NH2)
7.80

// lookup pKi | system=UniProt P31391 | key= C[C@@H](O)[C@@H]1NC(=O)[C@H](CCCCN)NC(=O)[C@@H](Cc2c[nH]c3ccccc23)NC(=O)[C@H](Cc2ccccc2)NC(=O)[C@@H]2CCCN2C(=O)[C@H](Cc2ccccc2)NC1=O (cyclo(PF[dW]KTF))
7.00

// lookup pKi | system=UniProt P31391 | key= CC(=O)N(CC(=O)NC1CSSCC(C(=O)NC(Cc2c[nH]c3ccccc23)C(N)=O)NC(=O)C(C(C)C)NC(=O)C(CCCCN)NC(=O)C(Cc2c[nH]c3ccccc23)NC(=O)C(Cc2ccc(O)cc2)NC1=O)Cc1ccccc1 (stereo not given) [RC 160II] (Ac-[Nphe]CYWKVCW-NH2; disulfide 2-7; configuration not given here)
7.00

[A] C[C@@H](O)[C@@H]1NC(=O)[C@H](CCCCN)NC(=O)[C@@H](Cc2c[nH]c3ccccc23)NC(=O)[C@H](Cc2c[nH]c3ccccc23)NC(=O)[C@H](Cc2ccccc2)NC(=O)CCCCCCNC(=O)[C@H](Cc2ccccc2)NC1=O [L-362855] (cyclo([Ahp]FW[dW]KTF))
[B] C[C@@H](OCc1ccccc1)[C@@H]1NC(=O)[C@H](CCCCN)NC(=O)[C@@H](Cc2c[nH]c3ccccc23)NC(=O)[C@H](Cc2ccccc2)NC(=O)CCCCCCNC1=O [c[Aha-Phe-D-Trp-Lys-Thr(Bzl)]] (cyclo([Ahp]F[dW]KT(Bn)))
Could you kindly indicate whether A or B has the higher pKi value? Mark your answer with the label of the selected entry.
A
(A: 7.00, B: 5.50)

* * *

Positions of bridges follow the written chain, without caps; N, C: chain ends. Non-standard residues stand in square brackets, D forms with d. Residues, ends and D or L forms follow the SMILES beside them. d1Nal = N[C@H](Cc1cccc2ccccc12)C(=O)O; Asu = N[C@@H](CCCCCC(=O)O)C(=O)O
Parameter pKi, tested on Somatostatin receptor type 4 (Homo sapiens), listed per item.
Sequence (P31391 whole entry): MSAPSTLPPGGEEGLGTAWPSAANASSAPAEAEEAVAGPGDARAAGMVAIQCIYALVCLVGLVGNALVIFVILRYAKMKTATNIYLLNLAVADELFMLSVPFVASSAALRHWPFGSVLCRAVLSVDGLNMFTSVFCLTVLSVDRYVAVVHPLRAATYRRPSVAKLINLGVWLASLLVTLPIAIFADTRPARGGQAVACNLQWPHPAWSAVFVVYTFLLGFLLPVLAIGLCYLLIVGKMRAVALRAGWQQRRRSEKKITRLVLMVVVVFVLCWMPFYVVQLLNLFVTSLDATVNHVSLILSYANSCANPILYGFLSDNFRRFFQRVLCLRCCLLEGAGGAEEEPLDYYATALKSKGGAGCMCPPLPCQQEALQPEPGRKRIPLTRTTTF
Answer as the number alone; pKi is minus log10 of concentration in mol/L.

// lookup pKi | system=Somatostatin receptor type 4 (Homo sapiens) | key= C[C@@H](O)[C@@H]1NC(=O)[C@H](Cc2ccc(O)cc2)NC(=O)[C@H]([C@@H](C)O)NC(=O)[C@H](CCCCN)NC(=O)[C@H](Cc2c[nH]c3ccccc23)NC(=O)[C@H](Cc2ccccc2)NC(=O)[C@H](Cc2ccccc2)NC(=O)[C@H](CC(N)=O)NC(=O)[C@H](CCCCN)NC(=O)CCCCC[C@@H](C(=O)O)NC(=O)[C@H](CO)NC1=O [CGP-23996] (KNFFWKTYTS[Asu]-OH; lactam N-11)
8.70

Next:
// lookup pKi | system=Somatostatin receptor type 4 (Homo sapiens) | key= CC(C)[C@H](NC(=O)[C@H](CCCCN)NC(=O)[C@@H](Cc1c[nH]c2ccccc12)NC(=O)[C@H](Cc1ccc(O)cc1)NC(=O)[C@H](Cc1ccccc1)NC(=O)[C@H](N)Cc1ccccc1)C(=O)N[C@@H](Cc1ccccc1)C(=O)N[C@H](Cc1cccc2ccccc12)C(N)=O [BIM 23056] (H-[dF]FY[dW]KVF[d1Nal]-NH2)
7.00

* * *

Molecular target: UniProtKB P30872
Positions of bridges follow the written chain, without caps; N, C: chain ends. Non-standard residues stand in square brackets, D forms with d. Residues, ends and D or L forms follow the SMILES beside them. d1Nal = N[C@H](Cc1cccc2ccccc12)C(=O)O; Asu = N[C@@H](CCCCCC(=O)O)C(=O)O
quantity: Ki (nM)
Record the value in nM, omitting the unit from your answer.

Below, 3 compounds whose answers are already recorded.
// lookup Ki | system=UniProtKB P30872 | key= C[C@@H](O)[C@@H]1NC(=O)[C@H](Cc2ccc(O)cc2)NC(=O)[C@H]([C@@H](C)O)NC(=O)[C@H](CCCCN)NC(=O)[C@H](Cc2c[nH]c3ccccc23)NC(=O)[C@H](Cc2ccccc2)NC(=O)[C@H](Cc2ccccc2)NC(=O)[C@H](CC(N)=O)NC(=O)[C@H](CCCCN)NC(=O)CCCCC[C@@H](C(=O)O)NC(=O)[C@H](CO)NC1=O [CGP-23996] (KNFFWKTYTS[Asu]-OH; lactam N-11)
3.98

// lookup Ki | system=UniProtKB P30872 | key= C[C@@H](O)[C@@H]1NC(=O)[C@H](CCCCN)NC(=O)[C@@H](Cc2c[nH]c3ccccc23)NC(=O)[C@H](Cc2ccccc2)NC(=O)[C@@H]2CCCN2C(=O)[C@H](Cc2ccccc2)NC1=O (cyclo(PF[dW]KTF))
631

// lookup Ki | system=UniProtKB P30872 | key= CC(C)[C@H](NC(=O)[C@H](CCCCN)NC(=O)[C@@H](Cc1c[nH]c2ccccc12)NC(=O)[C@H](Cc1ccc(O)cc1)NC(=O)[C@H](Cc1ccccc1)NC(=O)[C@H](N)Cc1ccccc1)C(=O)N[C@@H](Cc1ccccc1)C(=O)N[C@H](Cc1cccc2ccccc12)C(N)=O [BIM 23056] (H-[dF]FY[dW]KVF[d1Nal]-NH2)
100

For the next question, use this compound.
// lookup Ki | system=UniProtKB P30872 | key= C[C@@H](O)[C@H](NC(=O)[C@H](Cc1ccccc1)NC(=O)[C@@H](NC(=O)[C@H](CCCCN)NC(=O)[C@@H](Cc1c[nH]c2ccccc12)NC(=O)[C@H](Cc1ccccc1)NC(=O)[C@H](Cc1ccccc1)NC(=O)[C@H](N)Cc1ccccc1)[C@@H](C)O)C(N)=O [CAS_133073-82-2] (H-[dF]FF[dW]KTFT-NH2)
6.3

Reference for the values: BindingDB's records for doi:10.1016/s0026-0495(96)90072-4
